- System: HeLa MZ
- experimental-protocol: whole-cell filipin (free cholesterol) integrated intensity, Z-score; higher = more cholesterol staining
- run-parameters: compound concentration in added solution (µM; 5 µl added to 20 µl cells): 10; 18 h
Counter-ions that a name gives are not always drawn.
Returns the class for an entry based on its whole-cell filipin (z-score). Class ranges: low value (below -0.4), medium value (-0.4 to below -0.07), high value (-0.07 or more)

molecule	category
C[C@@H]1C[C@H]2[C@@H]3C[C@H](F)C4=CC(=O)C=C[C@]4(C)[C@@]3(Cl)[C@@H](O)C[C@]2(C)[C@H]1C(=O)COC(=O)C(C)(C)C [Clocortolone pivalate]	low value
CCOc1ccc(Cc2nccc3cc(OCC)c(OCC)cc23)cc1OCC [Ethaverine hydrochloride]	high value
CC(C)NCC(O)c1ccc(O)c(O)c1 (single isomer, unassigned; (-)) [(-)-Isoproterenol hydrochloride]	low value

// return the class label for O=C(O)c1ccccc1OP(=O)(O)O [Fosfosal]
high value

// return the class label for Cc1cc(C(C)(C)C)c(O)c(C)c1CC1=NCCN1 [Oxymetazoline hydrochloride]
low value

// return the class label for COc1ccc(CN(CCN(C)C)c2ccccn2)cc1 [Pyrilamine maleate]
medium value
